# SYSTEM UNDER TEST: Acetylcholinesterase (Electrophorus electricus)
# Sequence (O42275 whole entry): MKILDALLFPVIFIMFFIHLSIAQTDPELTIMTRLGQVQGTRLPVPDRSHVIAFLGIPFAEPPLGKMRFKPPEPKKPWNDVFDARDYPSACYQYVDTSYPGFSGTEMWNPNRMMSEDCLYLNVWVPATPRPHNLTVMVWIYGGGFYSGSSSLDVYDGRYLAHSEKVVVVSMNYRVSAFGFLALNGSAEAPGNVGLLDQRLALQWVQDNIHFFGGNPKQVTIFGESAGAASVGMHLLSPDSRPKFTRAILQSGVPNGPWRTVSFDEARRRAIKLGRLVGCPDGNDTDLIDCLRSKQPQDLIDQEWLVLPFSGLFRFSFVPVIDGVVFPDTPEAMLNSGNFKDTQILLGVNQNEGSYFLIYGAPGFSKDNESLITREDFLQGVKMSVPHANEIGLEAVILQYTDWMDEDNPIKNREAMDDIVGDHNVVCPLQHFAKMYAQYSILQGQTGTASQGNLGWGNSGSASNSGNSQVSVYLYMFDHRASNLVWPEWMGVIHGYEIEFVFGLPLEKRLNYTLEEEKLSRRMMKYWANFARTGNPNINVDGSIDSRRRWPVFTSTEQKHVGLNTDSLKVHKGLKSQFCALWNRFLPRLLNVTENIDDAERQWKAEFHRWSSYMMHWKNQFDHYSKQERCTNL
pIC50: −log10 of the molar value.
Lab note: compare pIC50 against 5. Equal or greater, write TRUE. Smaller, write FALSE.

QUERY SMILES	SYSTEM UNDER TEST	CLASSIFICATION
Cc1ccccc1N1CCN(C(=O)c2cc3ccccc3oc2=O)CC1	Acetylcholinesterase (Electrophorus electricus)	TRUE
Cc1ccc(C(=O)N2CCN(c3cc(=O)oc4ccc(C)cc34)CC2)cc1	Acetylcholinesterase (Electrophorus electricus)	TRUE
O=C(c1ccccc1)N1CCN(C(=O)c2cc3ccccc3oc2=O)CC1	Acetylcholinesterase (Electrophorus electricus)	FALSE

Is the recorded value of pIC50 equal to or greater than 5 for this compound? `Cc1ccc(N2CCN(c3cc(=O)oc4ccc(C)cc34)CC2)cc1`
FALSE

Next: `COc1ccccc1N1CCN(c2cc(=O)oc3ccc(C)cc23)CC1`
FALSE

----------
// each record: one item and its pIC50 for Acetylcholinesterase (Electrophorus electricus, UniProt O42275)
Answers are plain numbers, as −log10 of the molar value.

QUERY SMILES	EXPERIMENTAL RESULT
Cc1ccc2oc(=O)cc(N3CCN(c4ccccc4C)CC3)c2c1	5.10
Cc1ccc(N2CCN(C(=O)c3cc4ccccc4oc3=O)CC2)cc1	5.12
O=C(c1ccc(Cl)cc1)N1CCN(C(=O)c2cc3ccccc3oc2=O)CC1	4.68
COc1ccccc1N1CCN(C(=O)c2cc3ccccc3oc2=O)CC1	4.96

# return pIC50 for each item in the list
1. Cc1ccc2oc(=O)cc(N3CCN(C(=O)c4ccc(Cl)cc4)CC3)c2c1
2. Cc1ccc(C(=O)N2CCN(C(=O)c3cc4ccccc4oc3=O)CC2)cc1
3. COc1ccc(N2CCN(c3cc(=O)oc4ccc(C)cc34)CC2)cc1
4. O=C(c1cc2ccccc2oc1=O)N1CCOCC1
5. Cc1ccc2oc(=O)cc(N3CCN(C(=O)c4ccccc4Cl)CC3)c2c1

1. 4.80
2. 4.74
3. 4.74
4. 4.00
5. 4.68

Give me pIC50 for each of these molecules, listed below.
1. O=C(c1cc2ccccc2oc1=O)N1CCN(c2ccccc2)CC1
2. Cc1ccc2oc(=O)cc(N3CCN(c4ccc(Cl)cc4)CC3)c2c1

[5.03, 3.09]
